# Lookup of reported IC50 keyed by entry
# Target or test system: CB1 receptor (Homo sapiens, UniProt P21554)
# Sequence (P21554 whole entry): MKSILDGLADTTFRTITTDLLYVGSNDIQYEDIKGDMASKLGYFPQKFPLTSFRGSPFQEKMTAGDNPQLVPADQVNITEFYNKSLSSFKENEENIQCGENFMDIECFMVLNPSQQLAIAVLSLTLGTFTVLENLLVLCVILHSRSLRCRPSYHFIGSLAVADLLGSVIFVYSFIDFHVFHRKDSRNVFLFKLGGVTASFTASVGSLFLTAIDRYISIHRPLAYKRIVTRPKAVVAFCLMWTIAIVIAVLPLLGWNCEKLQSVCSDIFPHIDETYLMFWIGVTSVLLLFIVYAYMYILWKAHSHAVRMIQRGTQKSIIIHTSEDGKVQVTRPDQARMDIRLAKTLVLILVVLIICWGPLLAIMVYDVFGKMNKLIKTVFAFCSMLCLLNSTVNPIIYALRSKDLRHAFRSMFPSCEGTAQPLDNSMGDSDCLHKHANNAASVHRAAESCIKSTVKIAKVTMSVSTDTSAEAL

# Structure as smiles, Readout units, IC50
rows = [
    ("CC(C)=CCc1c2c(c(O)c3c(=O)c(-c4ccc(O)c(O)c4)coc13)C=CC(C)(C)O2", "nM", 8920),
    ("CC(C)=CCc1c2c(c3occ(-c4ccc(O)c(O)c4)c(=O)c3c1O)C=CC(C)(C)O2", "nM", 2110),
    ("CC(C)=CCc1c2c(c(O)c3c(=O)c(-c4ccc(O)cc4)coc13)C=CC(C)(C)O2", "nM", 1670),
]

----------
# Target or test system: CB2 receptor (Homo sapiens, UniProt P34972)
# Sequence (P34972 whole entry): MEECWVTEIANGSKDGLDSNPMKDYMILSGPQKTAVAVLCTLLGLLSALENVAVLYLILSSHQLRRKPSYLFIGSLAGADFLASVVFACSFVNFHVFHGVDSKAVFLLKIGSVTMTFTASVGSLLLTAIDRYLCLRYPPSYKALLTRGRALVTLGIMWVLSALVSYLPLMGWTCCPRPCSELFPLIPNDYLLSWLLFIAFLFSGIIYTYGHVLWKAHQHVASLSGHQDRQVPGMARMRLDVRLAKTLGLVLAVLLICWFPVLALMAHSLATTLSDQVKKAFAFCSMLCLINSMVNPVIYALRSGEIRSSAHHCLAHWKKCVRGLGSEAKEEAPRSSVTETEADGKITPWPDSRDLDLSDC
# Experiment notes: Cannabinoid receptor assay, CB2 (CP-55940 as control)
# Assay type: binding
# Experimental conditions: concentration not given
Quick list: CB2 % displacement per entry.
Quantity name: CB2 % displacement (%)

# Compound, Readout units, Result
rows = [
    ("CC(C)=CCc1c2c(c3occ(-c4ccc(O)cc4)c(=O)c3c1O)C=CC(C)(C)O2", "%", 52.7),
    ("C=C(C)C(O)C(=O)c1c2c(c3occ(-c4ccc(O)c(O)c4)c(=O)c3c1O)C=CC(C)(C)O2 (stereo not shown)", "%", 42.3),
    ("CC(C)=CCc1c2c(c3occ(-c4ccc(O)c(O)c4)c(=O)c3c1O)C=CC(C)(C)O2", "%", 66.0),
    ("CC(C)=CCc1c2c(c(O)c3c(=O)c(-c4ccc(O)cc4)coc13)C=CC(C)(C)O2", "%", 77.57),
]

----------
# Target or test system: CB1 receptor (Homo sapiens)
# Experiment notes: Cannabinoid receptor assay, CB1 (CP-55940 as control)
# Format: binding
# Experimental conditions: 10 μM

# Structure as smiles, CB1 % displacement (%)
measured = [
    ("CC(C)=CCc1c2c(c3occ(-c4ccc(O)cc4)c(=O)c3c1O)C=CC(C)(C)O2", 93.9),
    ("CC(C)=CCc1c2c(c3occ(-c4ccc(O)c(O)c4)c(=O)c3c1O)C=CC(C)(C)O2", 107.2),
    ("CC(C)=CCc1c2c(c(O)c3c(=O)c(-c4ccc(O)c(O)c4)coc13)C=CC(C)(C)O2", 86.7),
    ("CC(C)=CCc1c2c(c(O)c3c(=O)c(-c4ccc(O)cc4)coc13)C=CC(C)(C)O2", 111.3),
]

----------
CB1 % displacement values by entry
# Target or test system: CB1 receptor (Homo sapiens)
# Experiment notes: Cannabinoid receptor assay, CB1 (CP-55940 as control)
# Assay type: binding
# Experimental conditions: concentration not given
Quantity name: CB1 % displacement (%)

# Molecule, Readout units, Result
rows = [
    ("CC(C)=CCc1c2c(c(O)c3c(=O)c(-c4ccc(O)cc4)coc13)C=CC(C)(C)O2 [Warangalone (VII), warangalone]", "%", 111.3),
    ("C=C(C)C(O)C(=O)c1c2c(c3occ(-c4ccc(O)c(O)c4)c(=O)c3c1O)C=CC(C)(C)O2 (centres unmarked) [Kazosajin II]", "%", 47.9),
    ("COC(Cc1c2c(c(O)c3c(=O)c(-c4ccc(O)c(O)c4)coc13)C=CC(C)(C)O2)C(C)(C)O (centres unmarked) [Kazosajin I]", "%", 60.5),
    ("CC(C)=CCc1c2c(c3occ(-c4ccc(O)c(O)c4)c(=O)c3c1O)C=CC(C)(C)O2 [Pomiferin (V), pomiferin]", "%", 107.2),
    ("CC(C)=CCc1c2c(c3occ(-c4ccc(O)cc4)c(=O)c3c1O)C=CC(C)(C)O2 [Osajin (VIII), osajin]", "%", 93.9),
]
